Tested on: SF-295 CNS
assay_info: NCI tumour cell line growth inhibition, 48 h
Where a SMILES comes first, the peptide text is derived from it. [ ]: non-standard residue; d: D form. The star is where a group is joined. Fmoc = O=C(OCC1c2ccccc2-c2ccccc21)*; Nle = CCCC[C@H](N)C(=O)O; Cbz = O=C(OCc1ccccc1)*; Boc = CC(C)(C)OC(=O)*; OtBu = CC(C)(C)O*
recorded_endpoint: TGI

{"compound": "COc1ccc(/C=C/C(=O)c2ccc(NC(=O)CSc3nnc(-c4ccc(OC)c(OC)c4)n3-c3ccccc3)cc2)cc1", "TGI": "25.9 µM"}
{"compound": "CCCCSC(=CC(=O)c1cccc(C(=O)C=C(SCCCC)SCCCC)n1)SCCCC", "TGI": "> 100 µM"}
{"compound": "COc1ccc(C2=Nn3c(nnc3-c3ccccc3)S/C2=C\\c2ccc(-c3ccc([N+](=O)[O-])cc3)o2)cc1", "TGI": "> 100 µM"}
{"compound": "CC(C)(C)OC(=O)CCC(NC(=O)OCC1c2ccccc2-c2ccccc21)C(=O)NC(Cc1c[nH]c2ccccc12)C(=O)NC(CCCCNC(=O)OC(C)(C)C)C(=O)N1CCCC1C(=O)NCC(N)=O (stereo not given) (Fmoc-E(OtBu)WK(Boc)PG-NH2; configuration not given here)", "TGI": "> 100 µM"}
{"compound": "CCCCc1[nH]ccc2c(C)c3nc4ccccc4c3cc12", "TGI": "8.41 µM"}

Need TGI of O=c1c2ccccc2nc(-c2ccccc2Cl)n1NCC1(O)OCC(O)C(O)C1O (stereo not given) , thanks.
> 100 µM

Need TGI of CCCCCC(=O)n1[nH]c(=O)n(-c2ccc(OC)cc2)c1=O , thanks.
> 100 µM

Need TGI of CCOc1ccc(NC(=O)CC2C(=O)Nc3ccccc3S2=O)cc1 (stereo not given) , thanks.
> 100 µM

Need TGI of COc1cccc2c1C(=O)C1(O)CCCCC21 (stereo not given) , thanks.
> 100 µM

Need TGI of CC#CC#Cc1cccc(=O)o1 , thanks.
26.3 µM

Need TGI of CC(C)(C)N1C(=O)N=[N+](/C(=C(\c2ccccc2)n2nc([O-])n(C(C)(C)C)c2=O)c2ccccc2)C1=O , thanks.
> 100 µM

Need TGI of C=C1CC(Cn2cc(C)c(=O)[nH]c2=O)(c2ccc(Cl)cc2)OC1=O (stereo not given) , thanks.
> 34 µM

Need TGI of COc1ccc2c3c([nH]c2c1CC=C(C)C)C(=O)C=C(C)C3=O , thanks.
> 25 µM

Need TGI of OC1(c2ccccc2)CSc2ncnn21 (stereo not given) , thanks.
> 100 µM

Need TGI of CCCC[C@@H](C=O)NC(=O)[C@H](CC(C)C)NC(=O)[C@H](CC(C)C)NC(=O)OCc1ccccc1 (Cbz-Leu-Leu-[Nle]-aldehyde) , thanks.
5.71 µM

Need TGI of CCc1nc(N)nc(N)c1-c1ccc2c(c1)nnn2CCc1ccccc1 , thanks.
57.1 µM

###

Measured TGI values are reported for all entries that follow.
System: A549 NSCLC
assay_info: NCI tumour cell line growth inhibition, 48 h

Worked cases, answers included:
{"molecule": "O=C1Nc2ccc(Br)cc2C1=Nc1ccc2c(c1)OCO2", "result": "> 100 µM"}
{"molecule": "CCCc1n(Cc2ccc3ccccc3c2)c2ccccc2[n+]1Cc1ccc2ccccc2c1", "result": "2.04 µM"}
{"molecule": "COc1ccc2c3c([nH]c2c1CC=C(C)C)C(=O)C=C(C)C3=O", "result": "> 25 µM"}
{"molecule": "CC(NS(=O)(=O)c1ccc(Cl)cc1)C(=O)O (stereo unspecified)", "result": "> 100 µM"}
{"molecule": "CC(C)Sc1nncc(/C(N)=N/O)n1", "result": "> 100 µM"}
{"molecule": "COc1ccc(C2=Nn3c(nnc3-c3ccccc3)S/C2=C\\c2ccc(-c3ccc([N+](=O)[O-])cc3)o2)cc1", "result": "> 100 µM"}
{"molecule": "O=S(=O)(c1ccccc1)[C@H]1[C@@H]2O[C@@H]2C[C@@H]1O", "result": "> 100 µM"}
{"molecule": "CCOP(=O)(OCC)/C(C#N)=C/c1coc2cc(C)cc(C)c2c1=O", "result": "> 100 µM"}
{"molecule": "Cc1cn(C2CC(Br)C(COC(c3ccccc3)(c3ccccc3)c3ccccc3)O2)c(=O)[nH]c1=O (stereo unspecified)", "result": "23.8 µM"}
{"molecule": "N#CC1=C(Cl)NC(Cl)=C(C#N)C1c1ccc(Cl)cc1", "result": "37.1 µM"}

Continue with the molecule presented below.
Need TGI of O=C(/C=C/c1cccc(O)c1)c1cccc(-n2cc(-c3ccc(Cl)cc3)[nH]c2=O)c1 , thanks.
> 100 µM

Data origin, for the record: PubChem BioAssay (NCI)
